B1: EHEE_rd2_1257 (parent)
chain: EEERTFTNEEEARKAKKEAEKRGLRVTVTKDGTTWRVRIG

# Variants of: B1
# assay_explanation: folding stability dG (cDNA display proteolysis); higher = more stable
# cond: PBS, room temperature
quantity: folding stability dG (kcal/mol)
API: value field is a number in kcal/mol; no unit string.

Below, each entry is followed by its recorded folding stability dG result.
# mutation, folding stability dG, kcal/mol
data = [
    ("I39G", -0.238),
    ("T33C", 2.5),
    ("K21A", 2.53),
]

Entry I39L has what folding stability dG?
1.31

# get_value(readout='folding stability dG', item= G23F )
0.9

Look at this variant and give its reported folding stability dG. A12F
1.54

If you can, please state the reported folding stability dG value of R38I .
2.59

Look at this variant and give its reported folding stability dG. E11H
1.32

Dear colleague, I am looking for the recorded folding stability dG of the following variant: E20H
0.935

I have this variant here, E20V , and I need its recorded folding stability dG.
1.39

Given the entry A19T , report its measured folding stability dG.
0.176
